# Test system: DIO3 (gene 1735)
# Assay protocol: CCTE_GLTED_hDIO3: CCTE's human Deiodinase 3 (DIO3) Inhibition Assay, Great Lakes Toxicology and Ecology Division (GLTED) Lab (AID 2284055);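 further: potency is for inhibition seen as loss of released iodide signal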
Activity calls are given as the source filed them. How the source made its calls: active means hit-call score of the fitted dose curve at least 0.9, where 1 is the maximum; inconclusive means response in the unintended direction; inactive means score below 0.9.
Result type: AC50

- Item smiles: "CCCCCCCCCCCCc1ccc(O)cc1"
  AC50: "11.2 µM (active)"
- Item smiles: "O=C(O)c1cc(O)c2ccccc2c1O"
  AC50: "54.1 µM (active)"
- Item smiles: "CCCCC/C=C\\C/C=C\\CCCCCCCC(=O)O"
  AC50: "16.9 µM (active)"
- Item smiles: "CCCCCCCCCCCCCCCCCCOS(=O)(=O)O"
  AC50: "3.04 µM (active)"
- Item smiles: "C/C=C/C=C/CCCCCCCO"
  AC50: "16.4 µM (active)"

Attention now shifts to the item below.
Ask: What does the data say about its AC50? Entry: CCCCCCCOC(=O)c1ccc(O)cc1
Reply: 80.8 µM (active)
